src = paper PMC4072508

Molecular target: T1, Mcl-1, Q07820
T1 chain: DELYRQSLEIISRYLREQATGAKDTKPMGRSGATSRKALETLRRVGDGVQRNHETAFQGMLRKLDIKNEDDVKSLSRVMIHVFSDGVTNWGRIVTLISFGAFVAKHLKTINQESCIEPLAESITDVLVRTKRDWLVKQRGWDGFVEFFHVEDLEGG
Assay: peptide SPOT array, c-Myc-tagged receptor at 1 uM or 100 nM, anti-c-Myc-Cy3
endpoint: SPOT signal as a fraction of Bim BH3's signal on the same receptor and array

[[record]]
binder = "VHKHSRLAEVDQLGSDILPQYKQEAP [KCNH1]"
reportedvalue = 0.13

[[record]]
binder = "DSLAKFAGRKDKDCGEDLLVEISEVL [PCM1]"
reportedvalue = 0.01

[[record]]
binder = "HGTSSRIGSSDKSVGEVMAIGRTFEE [CPS1]"
reportedvalue = 0.02

[[record]]
binder = "HPRKESQVRQLAWVLDGVWVSIRLDS [SPAG9]"
reportedvalue = 0.02

[[record]]
binder = "SCMATVIHNPLKALGDQFYKEAIEHC [DPF3]"
reportedvalue = 0.02

[[record]]
binder = "TSRINEVQVNLSLLLDDLLLPAQSTL [SPHKAP]"
reportedvalue = 0.04

[[record]]
binder = "FKAWGKFGGAFCRYADEMKEIQERQR [PURB]"
reportedvalue = 1.16

[[record]]
binder = "FVENASIAYALKNVSGKIWDEDNEKI [NXF3]"
reportedvalue = 0.02

[[record]]
binder = "VTLLSEVEKMLSNFGDCVQYKEIVKN [SYNE1]"
reportedvalue = 0.08

[[record]]
binder = "RFVVIDNCIALKKVASRLKKKRKKKN [TTC3]"
reportedvalue = 0.17


(A) KWTAEEVVLWLEQLGPWASLYRERFL [BFAR]
(B) LGLGELAGLTVANEADSLTYDIANNK [STRN]
(C) TAAAAYRGAHLRGRLRTVYNTFRAAA [XXXX]
Highest SPOT signal as a fraction of Bim BH3's signal on the same receptor and array first, then in falling order down to the smallest. Answer format: list of labels, ordered as asked.
C, A, B
(C: 1.64, A: 0.05, B: 0.01)
